- assay_method_text: Cell viability assay (CCK-8), PANC-1
- Assay type: cell-based
- measurement_conditions: PANC-1 cells (pancreatic carcinoma), PANC-1, human pancreatic carcinoma, read-out: IC50 (μM) mean ± SD, cytotoxicity

[
  {
    "compound": "C=CC(=O)Nc1cc(-c2cc(-c3cc4c([nH]3)CCNC4=O)ccn2)ccc1OC(F)(F)F [compound 11]",
    "IC50 at 72 h": "35.3 µM"
  }
]

###

- assay_method_text: Mouse pharmacokinetics study
- Type: in vivo
- measurement_conditions: male, ICR, plasma, mice, ip. 10 mg/kg, mean ± SD
assay_readout: AUC(0-t) (ng·h/mL)

[
  {
    "molecular_string": "C=CC(=O)Nc1cc(-c2cc(-c3cc4c([nH]3)CCNC4=O)ccn2)ccc1OC(F)(F)F",
    "unit_abbrev": "ng·h/mL",
    "result": 44.5
  }
]

###

- assay_method_text: Mouse pharmacokinetics study
- Assay type: in vivo
- measurement_conditions: male, ICR, plasma, mice, ip. 10 mg/kg, mean ± SD
assay_readout: Tmax (min)

[
  {
    "molecular_string": "C=CC(=O)Nc1cc(-c2cc(-c3cc4c([nH]3)CCNC4=O)ccn2)ccc1OC(F)(F)F",
    "assay_readout": "Tmax",
    "unit_abbrev": "min",
    "result": 3
  }
]

###

- system_under_test: MK5 (Homo sapiens, UniProt Q8IW41)
- Construct: purchased Eurofins (Celle Lévescault)
- Sequence (Q8IW41 whole entry): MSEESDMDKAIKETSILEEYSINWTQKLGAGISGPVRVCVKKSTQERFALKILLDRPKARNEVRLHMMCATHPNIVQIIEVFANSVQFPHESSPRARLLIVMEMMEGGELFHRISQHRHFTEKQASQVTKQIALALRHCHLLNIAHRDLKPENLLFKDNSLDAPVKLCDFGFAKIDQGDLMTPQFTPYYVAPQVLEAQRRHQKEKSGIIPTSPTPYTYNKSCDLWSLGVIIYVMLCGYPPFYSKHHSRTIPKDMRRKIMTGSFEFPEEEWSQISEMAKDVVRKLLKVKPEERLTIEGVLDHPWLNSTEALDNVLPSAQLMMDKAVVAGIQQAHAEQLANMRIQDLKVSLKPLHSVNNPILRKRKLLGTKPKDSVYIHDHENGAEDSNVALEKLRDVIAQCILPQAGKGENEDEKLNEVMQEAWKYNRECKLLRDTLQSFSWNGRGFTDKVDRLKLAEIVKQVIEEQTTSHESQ
- assay_method_text: Eurofins kinase selectivity profile, MK5
- Assay type: biochemical

[
  {
    "molecular_string": "C=CC(=O)Nc1cc(-c2cc(-c3cc4c([nH]3)CCNC4=O)ccn2)ccc1OC(F)(F)F",
    "IC50": "> 100 nM"
  }
]

###

- assay_method_text: Mouse pharmacokinetics study
- Type: in vivo
- measurement_conditions: male, ICR, plasma, mice, ip. 10 mg/kg, mean ± SD, read-out: MRTinf_obs

[
  {
    "molecular_string": "C=CC(=O)Nc1cc(-c2cc(-c3cc4c([nH]3)CCNC4=O)ccn2)ccc1OC(F)(F)F",
    "MRT inf [h]": 1.64
  }
]

###

- assay_method_text: Cell viability assay (CCK-8), Raw264.7
- Format: cell-based
- measurement_conditions: Raw264.7 cells (mononuclear macrophage), Raw264.7, mouse mononuclear macrophage, read-out: IC50 (μM) mean ± SD, cytotoxicity
assay_readout: IC50 at 72 h (µM)

[
  {
    "compound": "C=CC(=O)Nc1cc(-c2cc(-c3cc4c([nH]3)CCNC4=O)ccn2)ccc1OC(F)(F)F [compound 11]",
    "unit_abbrev": "µM",
    "result": 31.7
  }
]

###

Each entry below carries its recorded log10 of IC50.
- system_under_test: MK2 (Homo sapiens)
- Sequence (P49137 whole entry): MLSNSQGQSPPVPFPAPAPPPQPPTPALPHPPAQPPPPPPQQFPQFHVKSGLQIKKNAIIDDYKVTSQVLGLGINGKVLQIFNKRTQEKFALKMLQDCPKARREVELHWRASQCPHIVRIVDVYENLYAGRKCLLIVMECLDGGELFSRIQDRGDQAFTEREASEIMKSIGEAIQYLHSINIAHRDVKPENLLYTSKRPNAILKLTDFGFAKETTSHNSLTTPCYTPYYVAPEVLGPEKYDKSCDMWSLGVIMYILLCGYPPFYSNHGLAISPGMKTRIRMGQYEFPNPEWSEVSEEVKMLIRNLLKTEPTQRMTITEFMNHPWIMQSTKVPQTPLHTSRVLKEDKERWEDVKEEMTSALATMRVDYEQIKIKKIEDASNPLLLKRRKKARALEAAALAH
- assay_method_text: MK2 kinase inhibition assay (ADP-Glo)
- Type: biochemical
- measurement_conditions: mean ± SD of two independent tests
assay_readout: log10 of IC50 (log10 of the value in nM)

[
  {
    "molecule": "C=CC(=O)Nc1cc(C)cc(-c2cc(-c3cc4c([nH]3)CCNC4=O)ccn2)c1",
    "log10 of IC50": 1.95
  },
  {
    "molecule": "C=CC(=O)Nc1cc(-c2cc(-c3cc4c([nH]3)CCNC4=O)ccn2)ccc1OC(F)(F)F",
    "log10 of IC50": 0.36
  },
  {
    "molecule": "C=CC(=O)Nc1cc(-c2cc(-c3cc4c([nH]3)CCNC4=O)ccn2)cc(N(C)C)c1",
    "log10 of IC50": 2.08
  },
  {
    "molecule": "C=CC(=O)Nc1cc(-c2cc(-c3cc4c([nH]3)CCNC4=O)ccn2)ccc1C(F)(F)F",
    "log10 of IC50": 1.72
  },
  {
    "molecule": "C=CC(=O)Nc1cc(OC(F)(F)F)cc(-c2cc(-c3cc4c([nH]3)CCNC4=O)ccn2)c1",
    "log10 of IC50": 2.33
  },
  {
    "molecule": "C=CC(=O)Nc1cccc(-c2cc(-c3cc4c([nH]3)CCNC4=O)ccn2)c1",
    "log10 of IC50": 2.86
  },
  {
    "molecule": "C=CC(=O)Nc1cc(OC)cc(-c2cc(-c3cc4c([nH]3)CCNC4=O)ccn2)c1",
    "log10 of IC50": 2.66
  },
  {
    "molecule": "C=CC(=O)Nc1cc(-c2cc(-c3cc4c([nH]3)CCNC4=O)ccn2)ccc1OC",
    "log10 of IC50": 1.57
  },
  {
    "molecule": "Cc1ccc(-c2ccc3c(ccc4sc5c(c43)NC[C@@H](C)NC5=O)n2)cn1 [PF-3644022, reference compound]",
    "log10 of IC50": 1.09
  },
  {
    "molecule": "C=CC(=O)Nc1cc(-c2cc(-c3cc4c([nH]3)CCNC4=O)ccn2)ccc1C",
    "log10 of IC50": 2.45
  },
  {
    "molecule": "C=CC(=O)Nc1cc(-c2cc(-c3cc4c([nH]3)CCNC4=O)ccn2)ccc1N(C)C",
    "log10 of IC50": 2.05
  },
  {
    "molecule": "C=CC(=O)Nc1cc(-c2cc(-c3cc4c([nH]3)CCNC4=O)ccn2)cc(C(F)(F)F)c1",
    "log10 of IC50": 2.34
  }
]
